Recorded values, source patent US9382257B2.

- Assay System: human ERK-2 (Mitogen Activated Kinase 1) (Homo sapiens)
- Construct: n-terminal 6-His fusion protein in E. coli and corresponding to aa 8-360; 6-His (N)
- Sequence (P28482 8-360): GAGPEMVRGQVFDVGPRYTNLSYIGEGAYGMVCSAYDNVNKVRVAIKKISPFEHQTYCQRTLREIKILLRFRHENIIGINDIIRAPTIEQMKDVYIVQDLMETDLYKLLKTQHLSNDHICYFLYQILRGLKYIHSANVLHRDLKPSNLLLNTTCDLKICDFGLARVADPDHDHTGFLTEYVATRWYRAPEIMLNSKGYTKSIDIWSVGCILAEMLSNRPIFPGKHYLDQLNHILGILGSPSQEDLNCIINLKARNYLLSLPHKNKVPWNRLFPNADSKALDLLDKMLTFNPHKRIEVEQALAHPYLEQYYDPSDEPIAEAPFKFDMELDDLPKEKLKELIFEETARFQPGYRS
- Experiment Summary: ERK-2 Enzymatic Assay (Example 2)
- Reported Conditions: Omnia peptide S/T17, 25 μM ATP, read-out: ERK Inhibition IC50
Each item that follows carries a reported log10 IC50.
Heads up: the numbers are on a log10 scale; they represent IC50 in nM.

Record excerpt, results attached:
Compound	Assay System	log10 IC50
Cc1[nH]ncc1-c1cnc2[nH]cc(-c3cnn(Cc4c(F)cccc4Cl)c3)c2n1	human ERK-2 (Mitogen Activated Kinase 1) (Homo sapiens)	0.26
COc1ccc(Cn2cc(-c3c[nH]c4ncc(-c5cn[nH]c5C)nc34)cn2)cc1F	human ERK-2 (Mitogen Activated Kinase 1) (Homo sapiens)	0.28
COc1cccc(F)c1Cn1cc(-c2c[nH]c3ncc(-c4cn[nH]c4C)nc23)cn1	human ERK-2 (Mitogen Activated Kinase 1) (Homo sapiens)	0.53

So what's the measured log10 IC50 for this one? `Cc1[nH]ncc1-c1cnc2[nH]cc(-c3ccc(OCCN4CCOCC4)nc3)c2n1`
1.48

So what's the measured log10 IC50 for this one? `Cc1[nH]ncc1-c1cnc2[nH]cc(-c3ccc(NCc4ccccc4)nc3)c2n1`
1.48

So what's the measured log10 IC50 for this one? `Cn1nccc1C(=O)NCc1cncc(-c2c[nH]c3ncc(-c4cn[nH]c4)nc23)c1`
2.16

So what's the measured log10 IC50 for this one? `Cc1[nH]ncc1-c1cnc2[nH]cc(-c3ccc(OCC4CC4)nc3)c2n1`
1.67

So what's the measured log10 IC50 for this one? Cc1[nH]ncc1-c1cnc2[nH]cc(-c3cnn(C(C)c4ccccc4Cl)c3)c2n1 (stereo not drawn)
0.34

So what's the measured log10 IC50 for this one? `Cc1[nH]ncc1-c1cnc2[nH]cc(-c3cnn(Cc4ccc(F)c(Cl)c4)c3)c2n1`
0.37
